Values compiled from paper PMC7700423.

ASSAY: Pharmacokinetics of TOL and HTOL after intravenous TOL in rats
Format: in vivo, rat
TEST CONTEXT: male, Sprague-Dawley, rat, plasma, iv, 2 mg/kg, i.v. 2 mg/kg TOL, 1,25(OH)2D3-treated rats, n = 9-10; read-out: AUC (converted)
PROPERTY NAME: AUC (µg·h/mL)

MOLECULE: CCCCNC(=O)NS(=O)(=O)c1ccc(C)cc1 [TOL, tolbutamide]
PROPERTY NAME: AUC
RESULT: 170

====

ASSAY: Pharmacokinetics of BUP and HBUP after intravenous BUP in rats
Format: in vivo, rat
TEST CONTEXT: male, Sprague-Dawley, rat, plasma and urine, iv, 5 mg/kg, i.v. 5 mg/kg BUP, control rats
PROPERTY NAME: CL renal (L/h/kg)

MOLECULE: CC(NC(C)(C)C)C(=O)c1cccc(Cl)c1 (stereo not shown) [BUP, bupropion]
RESULT: 0.0397

====

ASSAY: Pharmacokinetics of BUP and HBUP after intravenous BUP in rats
Format: in vivo, rat
TEST CONTEXT: male, Sprague-Dawley, rat, plasma, iv, 5 mg/kg, i.v. 5 mg/kg BUP, control rats; read-out: Vss
PROPERTY NAME: Vd (L/kg)

COMPOUND: CC(NC(C)(C)C)C(=O)c1cccc(Cl)c1 (stereo not shown) [BUP, bupropion]
U: L/kg
RESULT: 7.82

====

ASSAY: Pharmacokinetics of TOL and HTOL after intravenous TOL in rats
Type: in vivo, rat
TEST CONTEXT: male, Sprague-Dawley, rat, plasma, iv, 2 mg/kg, i.v. 2 mg/kg TOL, control rats

MOLECULE: CCCCNC(=O)NS(=O)(=O)c1ccc(C)cc1 [TOL, tolbutamide]
MRT [h]: 11

====

ASSAY: Pharmacokinetics of TOL and HTOL after intravenous TOL in rats
Format: in vivo, rat
TEST CONTEXT: male, Sprague-Dawley, rat, urine and plasma, iv, 2 mg/kg

COMPOUND: CCCCNC(=O)NS(=O)(=O)c1ccc(C)cc1 [TOL, tolbutamide]
CL renal [mL/day/kg]: 0.3

====

ASSAY: Pharmacokinetics of TOL and HTOL after intravenous TOL in rats
Assay type: in vivo, rat
TEST CONTEXT: male, Sprague-Dawley, rat, plasma, iv, 2 mg/kg, i.v. 2 mg/kg TOL, 1,25(OH)2D3-treated rats; read-out: Vss
Protocol: Male Sprague-Dawley (SD) rats (8 weeks, 260–280 g) were purchased from Nara Biotech Co. (Seoul, Korea). […] The dosing solution for the control group was prepared but the 1,25(OH)2D3 was omitted. […] On the fifth day, rats were used for pharmacokinetic study. […] Moreover, CLNR was calculated to subtract CLR from CL.

COMPOUND: CCCCNC(=O)NS(=O)(=O)c1ccc(C)cc1 [TOL, tolbutamide]
Vd / L/kg: 0.153

====

ASSAY: Pharmacokinetics of BUP and HBUP after intravenous BUP in rats
Assay type: in vivo, rat
TEST CONTEXT: male, Sprague-Dawley, rat, plasma, iv, 5 mg/kg, i.v. 5 mg/kg BUP, 1,25(OH)2D3-treated rats

COMPOUND: CC(NC(C)(C)C)C(=O)c1cccc(Cl)c1 (stereo not shown)
U: h
MRT: 1.47

====

ASSAY: Pharmacokinetics of TOL and HTOL after intravenous TOL in rats
Type: in vivo, rat
TEST CONTEXT: male, Sprague-Dawley, rat, plasma, iv, 2 mg/kg, i.v. 2 mg/kg TOL, control rats, n = 9-10; read-out: AUC (converted)

COMPOUND: CCCCNC(=O)NS(=O)(=O)c1ccc(C)cc1 [TOL, tolbutamide]
U: µg·h/mL
AUC: 180
